# Ratio (-BP/+BP), DF-100,000 annotations
- test-target: T1, human IL-18 binding protein (human, UniProt O95998 31-194)
- T1 sequence (looked up): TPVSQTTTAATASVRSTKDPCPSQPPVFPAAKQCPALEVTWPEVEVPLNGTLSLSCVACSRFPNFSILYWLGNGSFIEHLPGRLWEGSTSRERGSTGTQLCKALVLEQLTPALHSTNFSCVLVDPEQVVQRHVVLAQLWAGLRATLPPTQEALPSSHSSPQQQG
- method: cell-based or functional assay
Reply briefly: the number, and no unit.

Here are 2 binders together with their reported answers.
INSERT INTO results (binder, readout_type, observed_measurement) VALUES
  ('yeast display IL-18 variant K53N, S55I (ligand) YFGKLESKLSVIRNLNDQVLFIDQGNRPLFEDMTDSDMRDNAPRTIFIISMYNDIQPRGMAVTISVKSEKISTLSSENKIISFKEMNPPDNIKDTKSDIIFFQRSVPGHDNKMQFESSSYEGYFLASEKERDLFKLILKKEDELGDRSIMFTVQNED', 'Ratio (-BP/+BP), DF-100,000', 1),
  ('yeast display IL-18 variant K53H, S55V (ligand) YFGKLESKLSVIRNLNDQVLFIDQGNRPLFEDMTDSDMRDNAPRTIFIISMYHDVQPRGMAVTISVKSEKISTLSSENKIISFKEMNPPDNIKDTKSDIIFFQRSVPGHDNKMQFESSSYEGYFLASEKERDLFKLILKKEDELGDRSIMFTVQNED', 'Ratio (-BP/+BP), DF-100,000', 2.79);

Problem: Ratio (-BP/+BP), DF-100,000 for yeast display IL-18 variant K53S, S55K (ligand) YFGKLESKLSVIRNLNDQVLFIDQGNRPLFEDMTDSDMRDNAPRTIFIISMYSDKQPRGMAVTISVKSEKISTLSSENKIISFKEMNPPDNIKDTKSDIIFFQRSVPGHDNKMQFESSSYEGYFLASEKERDLFKLILKKEDELGDRSIMFTVQNED ?
Solution: 0.96

Problem: # repeat for yeast display IL-18 variant K53T, S55M, R58K (ligand) YFGKLESKLSVIRNLNDQVLFIDQGNRPLFEDMTDSDMRDNAPRTIFIISMYTDMQPKGMAVTISVKSEKISTLSSENKIISFKEMNPPDNIKDTKSDIIFFQRSVPGHDNKMQFESSSYEGYFLASEKERDLFKLILKKEDELGDRSIMFTVQNED
Solution: 0.92

Problem: # repeat for yeast display IL-18 variant K53Q, D54N, S55M, Q56H (ligand) YFGKLESKLSVIRNLNDQVLFIDQGNRPLFEDMTDSDMRDNAPRTIFIISMYQNMHPRGMAVTISVKSEKISTLSSENKIISFKEMNPPDNIKDTKSDIIFFQRSVPGHDNKMQFESSSYEGYFLASEKERDLFKLILKKEDELGDRSIMFTVQNED
Solution: 1.16

Problem: # repeat for yeast display IL-18 variant K53N, S55M, R104S, P107A (ligand) YFGKLESKLSVIRNLNDQVLFIDQGNRPLFEDMTDSDMRDNAPRTIFIISMYNDMQPRGMAVTISVKSEKISTLSSENKIISFKEMNPPDNIKDTKSDIIFFQSSVAGHDNKMQFESSSYEGYFLASEKERDLFKLILKKEDELGDRSIMFTVQNED
Solution: 1.93

Problem: # repeat for yeast display IL-18 variant K53S, S55F, R104K, H109Y (ligand) YFGKLESKLSVIRNLNDQVLFIDQGNRPLFEDMTDSDMRDNAPRTIFIISMYSDFQPRGMAVTISVKSEKISTLSSENKIISFKEMNPPDNIKDTKSDIIFFQKSVPGYDNKMQFESSSYEGYFLASEKERDLFKLILKKEDELGDRSIMFTVQNED
Solution: 1.18

Ref: patent US20240182536A1
